# Assay system: Cytochrome P450 3A4 (Homo sapiens) (UniProt P08684)
# Sequence (P08684 whole entry, looked up): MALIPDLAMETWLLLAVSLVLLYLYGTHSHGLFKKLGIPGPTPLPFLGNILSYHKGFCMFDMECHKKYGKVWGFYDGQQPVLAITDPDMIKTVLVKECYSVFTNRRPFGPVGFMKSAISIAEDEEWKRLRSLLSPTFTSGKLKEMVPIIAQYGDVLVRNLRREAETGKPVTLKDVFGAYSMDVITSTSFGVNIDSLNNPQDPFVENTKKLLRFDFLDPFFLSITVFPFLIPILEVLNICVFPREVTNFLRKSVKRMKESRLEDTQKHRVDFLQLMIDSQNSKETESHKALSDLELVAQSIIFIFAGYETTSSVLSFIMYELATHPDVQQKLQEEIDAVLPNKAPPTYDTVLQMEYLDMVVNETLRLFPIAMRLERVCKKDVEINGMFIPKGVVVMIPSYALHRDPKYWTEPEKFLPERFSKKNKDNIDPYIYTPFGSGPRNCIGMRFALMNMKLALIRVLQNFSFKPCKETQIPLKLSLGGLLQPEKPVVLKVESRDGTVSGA
# Protocol description: qHTS Assay for Inhibitors and Substrates of Cytochrome P450 3A4 (AID 884); note: nearly all actives have a fitted effect of over 50% in size; note: potency is the fitted concentration of half-maximal effect
# Particulars: recombinant CYP3A4, Luciferin-PPXE luminescence; series mostly up to 57.1 µM
# Protocol: NIH Molecular Libraries Screening Centers Network [MLSCN] NIH Chemical Genomics Center [NCGC] The P450 gene superfamily is involved in the metabolism and clearance of xenobiotics. […] The luciferin is then measured by luminescence after the addition of a luciferase detection reagent. […] Inhibitors and some substrates limit the production of luciferin, and decrease measured luminescence. […]
Results filed as inconclusive are left out. Active and inactive are the calls of the source. Calls come from the whole dose curve; as a rule, active = well fitted inhibition curve with a large enough effect; inconclusive = small, poorly fitted or top-dose-only effect; inactive = no such curve, though single readings can be large or run the other way.
Parameter measured: Potency

Compound	Experimental result
FC(F)(F)c1ccc(C2[C@H]3CN(CC4CCCCC4)[C@H](c4ccccc4)C34CC2(c2cccnc2)C4)cc1 (stereo not given in full)	15.8 µM (active)
CN1C[C@@H]2C(c3ccc(C(F)(F)F)cc3)C3(c4cccnc4)CC2(C3)[C@H]1c1ccccc1 (stereo not given in full)	7.94 µM (active)
CC1(C(=O)NCc2cc(F)cc(C(F)(F)F)c2)C=CC2(CCCCC2)N1C(=O)c1ccccc1 (stereo not given)	6.31 µM (active)
NC(=O)NCc1ccccc1	inactive
COc1ccc(O[C@H]2C=C[C@@H](c3ccccc3)O[C@H]2CO/N=C2/c3cc(OC)ccc3O[C@@H](c3cccc(OC)c3)[C@H]2O)cc1	3.16 µM (active)
CCOC(=O)OCC1OC(C#Cc2ccccc2)C=CC1Oc1cccc(N(C)C)c1 (stereo not given)	3.98 µM (active)

Considering N#Cc1ccc(C23CC4(C2)[C@H](CN(Cc2ccc(-c5ccccc5)cc2)[C@@H]4c2ccccc2)C3c2ccc(Cl)nc2)cc1 (stereo not given in full) , its Potency with Cytochrome P450 3A4 (Homo sapiens) (UniProt P08684) was recorded as inactive

Readout Potency for COC(=O)c1cccc(C23CC4(C2)[C@H](CN(Cc2ccc(C(F)(F)F)cc2)[C@@H]4c2ccccc2)C3c2ccccc2)c1 (stereo not given in full) , test system Cytochrome P450 3A4 (Homo sapiens) (UniProt P08684), was 12.6 µM (active)

Test item COC(=O)CC1Oc2cc3oc4c(c3cc2O1)C(=O)CC(C)(C)C4 (stereo not given) ; Cytochrome P450 3A4 (Homo sapiens) (UniProt P08684); reported Potency was inactive

Form field, Potency with Cytochrome P450 3A4 (Homo sapiens) (UniProt P08684), item COC(=O)C(C(C)=O)C(NC(=O)NCc1ccccc1)c1ccccc1 (stereo not given) : 3.98 µM (active)

Recorded Potency for CNC(=O)[C@@H](Cc1ccccc1)N(C)C(=O)[C@@H](Cc1ccc2ccccc2c1)N(C)C(=O)/C=C/CC(C)(C)N on Cytochrome P450 3A4 (Homo sapiens) (UniProt P08684) was 7.94 µM (active)

Short answer on Cytochrome P450 3A4 (Homo sapiens) (UniProt P08684) for C/C=C/OC(=O)NC(c1ccccc1)[C@]1(C(C)=O)CCOC1=O (stereo not given in full) , Potency: 0.0316 µM (active)

Log: Cytochrome P450 3A4 (Homo sapiens) (UniProt P08684), compound CCCCCCN(C(=O)CCCCCN1C(=O)NC(c2ccc(-c3ccccc3)cc2)C(C(=O)OCc2ccccc2)=C1C)C(C(=O)NCCCC)c1ccc(O)c(C(=O)OC)c1 (stereo not given) , Potency = 10 µM (active)

Record for COc1ccc(/C=C/NC(=O)Cc2ccc(OC)c(OC)c2)cc1 under target or system Cytochrome P450 3A4 (Homo sapiens) (UniProt P08684): Potency reported as 3.16 µM (active)

The observed Potency for C=CCOC(=O)C(C(C)=O)C(NC(=O)OC)c1cccc(C(F)(F)F)c1 (stereo not given) when tested with Cytochrome P450 3A4 (Homo sapiens) (UniProt P08684) stands at 1.58 µM (active)
